# experimental.system: human ETA receptors (Homo sapiens)
# Construct: endogenous in cells; host or cells: TE 671 cells (ATCC HTB 139), membrane preparation
# Sequence (P25101 21-427): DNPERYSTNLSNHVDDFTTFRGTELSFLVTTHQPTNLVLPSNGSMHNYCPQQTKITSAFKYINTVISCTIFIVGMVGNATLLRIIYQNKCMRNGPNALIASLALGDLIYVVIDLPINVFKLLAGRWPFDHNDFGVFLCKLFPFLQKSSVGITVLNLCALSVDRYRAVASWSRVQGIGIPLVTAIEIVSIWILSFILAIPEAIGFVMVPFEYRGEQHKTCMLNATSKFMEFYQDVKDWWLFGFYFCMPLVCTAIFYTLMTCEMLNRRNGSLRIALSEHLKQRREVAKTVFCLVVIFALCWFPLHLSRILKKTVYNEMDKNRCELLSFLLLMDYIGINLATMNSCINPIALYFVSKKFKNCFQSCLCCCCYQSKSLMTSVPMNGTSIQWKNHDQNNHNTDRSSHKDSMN
# assay.explanation: Endothelin binding inhibition, Binding Test #1: competition with 125I-ET-1 for ETA receptors on TE 671 cell membranes
# run.parameters: incubation at 24° C. (values marked †)
pIC50: −log10 of the molar value.
parameter: pIC50

Worked set:
>>> endpoint_value("Cc1noc(NS(=O)(=O)c2ccsc2C(=O)NC(=O)c2ccc3c(c2)OCO3)c1Br")
7.05
>>> endpoint_value("COc1ccccc1Cc1sc2ccccc2c1S(=O)(=O)Nc1onc(C)c1Br")
6.72
>>> endpoint_value("Cc1ccc(NC(=O)c2sccc2S(=O)(=O)Nc2onc(C)c2Cl)cc1")
7.98

(P) Cc1noc(NS(=O)(=O)c2ccsc2C(=O)Cc2ccc3c(c2)OCO3)c1Cl
(Q) Cc1ccc(CCc2sccc2S(=O)(=O)Nc2onc(C)c2Br)cc1
Inquiry: Of P versus Q , which is the one with smaller reported pIC50? // return label of chosen record
Reply text: Q
(Q: 6.97, P: 7.68)
